Numbers sourced from BindingDB's records for doi:10.1021/jm010216r.

# protocolDetails: Inhibitory activity against PRPP synthetase
readout: pKi
The meaning of pKi here: minus log10 of the concentration in molar units.

q: Identify pKi associated with the molecule Nc1ncnc2ncn(CCOCP(=O)(O)O)c12
a: 1.77
